B1: Pistol ribozyme (parent)
chain: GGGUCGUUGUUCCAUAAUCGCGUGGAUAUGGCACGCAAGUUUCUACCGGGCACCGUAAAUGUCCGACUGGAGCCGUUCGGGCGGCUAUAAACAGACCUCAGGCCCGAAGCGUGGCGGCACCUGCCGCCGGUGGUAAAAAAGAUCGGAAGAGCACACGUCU

variants of: B1; test: aptazyme ON/OFF ratio, guanine; higher = stronger switching; co-transcriptional cleavage with and without guanine

Mutation annotation	aptazyme ON/OFF ratio
G9A U11C C13A	1.03
U8A G9U U11G C12U C13A	1.41
U8G G9U U10A U11A C13U	1.25
U7G U8G G9C U10A U11G C12U C13G	1.04
U7C U8C G9U U10C U11G C12A C13U	1.12
U7C U8A G9C U10A U11G C12A C13A	1.13
U7A U8G G9A U10C U11G C12A C13A	1.18
U8A G9C U10G U11A C12U C13U	1.08
U7A U8G U10A U11C C12A C13G	1.26
U7C U8C U10A U11C C12U C13G	1.1
U8A G9A U11C C12A	1.16
